System: Mus musculus
Procedure text: Analgesic activity in mouse assessed as pain threshold variation at 25 umol/kg, po after 150 mins (RVb = 3.98 +/- 4.03 %)
Type: functional
The molecules listed here are annotated with their Activity.
Parameter: Activity (%)

> print(dat)
                                    molecule   system.name  parameter  reported.measurement
 1  N=C(N)NCCC[C@H](NC(=O)CN(c1nc(Cl)nc2c1ncn2C1CCCCO1)C1CC1)C(=O)OCc1ccccc1 (some centres not stated)  Mus musculus   Activity                  19.6
 2  NC(=O)C[C@H](NC(=O)CN(c1nc(Cl)nc2c1ncn2C1CCCCO1)C1CC1)C(=O)OCc1ccccc1 (some centres not stated)  Mus musculus   Activity                 21.71
 3  O=C(CN(c1nc(Cl)nc2c1ncn2C1CCCCO1)C1CC1)N[C@@H](CCC(=O)OCc1ccccc1)C(=O)OCc1ccccc1 (some centres not stated)  Mus musculus   Activity                 14.14
 4  O=C(CN(c1nc(Cl)nc2c1ncn2C1CCCCO1)C1CC1)NCC(=O)OCc1ccccc1 (configuration not stated)  Mus musculus   Activity                  7.26
 5  NC(=O)CC[C@H](NC(=O)CN(c1nc(Cl)nc2c1ncn2C1CCCCO1)C1CC1)C(=O)OCc1ccccc1 (some centres not stated)  Mus musculus   Activity                 10.72
 6  O=C(CN(c1nc(Cl)nc2c1ncn2C1CCCCO1)C1CC1)N[C@@H](Cc1ccccc1)C(=O)OCc1ccccc1 (some centres not stated)  Mus musculus   Activity                  3.49
 7  Clc1nc(NC2CC2)c2ncn(C3CCCCO3)c2n1 (configuration not stated)  Mus musculus   Activity                  5.72
 8  CC(C)[C@H](NC(=O)CN(c1nc(Cl)nc2c1ncn2C1CCCCO1)C1CC1)C(=O)OCc1ccccc1 (some centres not stated)  Mus musculus   Activity                 21.08
 9  O=C(CN(c1nc(Cl)nc2c1ncn2C1CCCCO1)C1CC1)N[C@@H](CO)C(=O)OCc1ccccc1 (some centres not stated)  Mus musculus   Activity                 18.32
10  O=C(CN(c1nc(Cl)nc2c1ncn2C1CCCCO1)C1CC1)N[C@@H](Cc1ccc(O)cc1)C(=O)OCc1ccccc1 (some centres not stated)  Mus musculus   Activity                  8.71
11  C[C@H](NC(=O)CN(c1nc(Cl)nc2c1ncn2C1CCCCO1)C1CC1)C(=O)OCc1ccccc1 (some centres not stated)  Mus musculus   Activity                  6.01
12  O=C(CN(c1nc(Cl)nc2c1ncn2C1CCCCO1)C1CC1)N[C@@H](Cc1cnc[nH]1)C(=O)OCc1ccccc1 (some centres not stated)  Mus musculus   Activity                  5.31
13  CCOC(=O)CN(c1nc(Cl)nc2c1ncn2C1CCCCO1)C1CC1 (configuration not stated)  Mus musculus   Activity                 11.85
14  O=C(CN(c1nc(Cl)nc2c1ncn2C1CCCCO1)C1CC1)N[C@@H](CC(=O)OCc1ccccc1)C(=O)OCc1ccccc1 (some centres not stated)  Mus musculus   Activity                  0.06
15  CC[C@H](C)[C@H](NC(=O)CN(c1nc(Cl)nc2c1ncn2C1CCCCO1)C1CC1)C(=O)OCc1ccccc1 (some centres not stated)  Mus musculus   Activity                 16.43
16  C[C@@H](O)[C@H](NC(=O)CN(c1nc(Cl)nc2c1ncn2C1CCCCO1)C1CC1)C(=O)OCc1ccccc1 (some centres not stated)  Mus musculus   Activity                  6.53
17  CC(C)C[C@H](NC(=O)CN(c1nc(Cl)nc2c1ncn2C1CCCCO1)C1CC1)C(=O)OCc1ccccc1 (some centres not stated)  Mus musculus   Activity                  6.47

###

System: Mus musculus
Procedure text: Analgesic activity in mouse assessed as pain threshold variation at 30 umol/kg, po after 90 mins (RVb = 0.17 +/- 0.14 %)
Assay type: functional
Where a SMILES comes first, the peptide text is derived from it. The star is where a group is joined. OBn = c1ccc(CO*)cc1
Parameter: Activity (%)

> print(dat)
                                   compound  reported.measurement
1                    Clc1nc(Cl)c2nc[nH]c2n1                 14.02
2  O=C(CN(c1nc(Cl)nc2c1ncn2C1CCCCO1)C1CC1)NCC(=O)OCc1ccccc1 (stereo not drawn)                 31.04
3  C[C@H](NC(=O)CN)C(=O)OCc1ccccc1 (H-Gly-Ala-OBn)                 13.45
4  Clc1nc(NC2CC2)c2ncn(C3CCCCO3)c2n1 (stereo not drawn)                 16.96
5                        NCC(=O)O [GLYCINE]                 11.31
6  N=C(N)NCCC[C@H](NC(=O)CN(c1nc(Cl)nc2c1ncn2C1CCCCO1)C1CC1)C(=O)OCc1ccccc1 (stereo partly drawn)                 66.71
7  Clc1nc(Cl)c2ncn(C3CCCCO3)c2n1 (stereo not drawn)                 15.01
8  C[C@H](NC(=O)CN(c1nc(Cl)nc2c1ncn2C1CCCCO1)C1CC1)C(=O)OCc1ccccc1 (stereo partly drawn)                 37.16

###

Test system: Mus musculus
Procedure text: Analgesic activity in mouse assessed as pain threshold variation at 30 umol/kg, po after 150 mins (RVb = 0.16 +/- 0.13 %)
Assay type: functional
Where a SMILES comes first, the peptide text is derived from it. The star is where a group is joined. OBn = c1ccc(CO*)cc1
The compounds listed here are annotated with their Activity.
Parameter: Activity

> print(dat)
                                   compound   system.name  reported.measurement
1  O=C(CN(c1nc(Cl)nc2c1ncn2C1CCCCO1)C1CC1)NCC(=O)OCc1ccccc1 (stereo not drawn)  Mus musculus                12.33%
2  Clc1nc(Cl)c2ncn(C3CCCCO3)c2n1 (stereo not drawn)  Mus musculus                 9.89%
3  Clc1nc(NC2CC2)c2ncn(C3CCCCO3)c2n1 (stereo not drawn)  Mus musculus                10.78%
4                    Clc1nc(Cl)c2nc[nH]c2n1  Mus musculus                 8.77%
5  C[C@H](NC(=O)CN(c1nc(Cl)nc2c1ncn2C1CCCCO1)C1CC1)C(=O)OCc1ccccc1 (stereo partly drawn)  Mus musculus                 11.2%
6                                  NCC(=O)O  Mus musculus                11.54%
7  N=C(N)NCCC[C@H](NC(=O)CN(c1nc(Cl)nc2c1ncn2C1CCCCO1)C1CC1)C(=O)OCc1ccccc1 (stereo partly drawn)  Mus musculus                24.69%
8  C[C@H](NC(=O)CN)C(=O)OCc1ccccc1 (H-Gly-Ala-OBn)  Mus musculus                   13%

###

Tested on: Mus musculus
Procedure text: Analgesic activity in mouse assessed as pain threshold variation at 25 umol/kg, po after 150 mins (RVb = 3.98 +/- 4.03 %)
Type: functional
Parameter: Activity

> print(dat)
                                   molecule  reported.measurement
1  CSCC[C@H](NC(=O)CN(c1nc(Cl)nc2c1ncn2C1CCCCO1)C1CC1)C(=O)OCc1ccccc1 (stereo not given in full)                17.47%
2  O=C(OCc1ccccc1)[C@@H]1CCCN1C(=O)CN(c1nc(Cl)nc2c1ncn2C1CCCCO1)C1CC1 (stereo not given in full)                 7.85%
3  CC(C)(C)OC(=O)NCCCC[C@H](NC(=O)CN(c1nc(Cl)nc2c1ncn2C1CCCCO1)C1CC1)C(=O)OCc1ccccc1 (stereo not given in full)                 17.2%
4  O=C(O)CN(c1nc(Cl)nc2c1ncn2C1CCCCO1)C1CC1 (stereo not given)                 3.12%
5  O=C(CN(c1nc(Cl)nc2c1ncn2C1CCCCO1)C1CC1)N[C@@H](Cc1c[nH]c2ccccc12)C(=O)OCc1ccccc1 (stereo not given in full)                11.45%
